Target: human Npt2a (Homo sapiens)
Assay: Npt2a activity cell based assay, membrane potential dye, CHO T-REx hNpt2a cells
Settings: doxycycline-induced, depolarization by sodium phosphate influx, average or median values if tested more than once
Reported log10 IC50 by item:
Transform log10 | Measure IC50 | Unit nM

Past entries and their recorded results:
{"Compound": "CCc1c(-c2ccc(F)cc2)nn(Cc2nnnn2C)c1Nc1cc(-n2nc(C)cc2C)ncn1", "log10 IC50": 1.11}
{"Compound": "Cc1nn(-c2cc(Nc3c(C)c(-c4ccc(F)cc4)nn3CC3CC3)ncn2)c(C)c1C(C)O (racemic) [Example 249]", "log10 IC50": 1.34}
{"Compound": "Cc1nn(-c2cc(Nc3c(C4CC4)c(-c4ccc(F)cc4)nn3C)ncn2)c2ccccc12", "log10 IC50": 1.95}
{"Compound": "Cc1nn(-c2cc(Nc3c(C)c(-c4ccc(C#N)cc4)nn3C)ncn2)c(C(F)F)c1Cl", "log10 IC50": 0.85}
{"Compound": "CCc1c(Nc2cc(-n3nc(C)cc3C(F)F)ncn2)nn(C)c1-c1ccc(F)cc1", "log10 IC50": 0.80}

Query: Entry under review: "Cc1nn(-c2cc(Nc3nn(C)c(-c4ccc(F)cn4)c3C)ncn2)c(C)c1Cl" . Reported log10 IC50?
Reply: 1.26

Query: Item: "CC(=O)c1c(C)nn(-c2cc(Nc3c(C)nn(-c4ccc(C#N)cc4)c3C)ncn2)c1C"
Reply: 1.89

Query: Item: Cc1nn(-c2cc(Nc3nn(C)c(-c4ccc(F)cc4)c3C)ncn2)c(C)c1C(O)CC(C)C (centres unmarked)
Reply: 1.61

* * *

Reported IC50 by item:
Target: human Npt2a (Homo sapiens, UniProt Q06495)
Sequence (Q06495 whole entry): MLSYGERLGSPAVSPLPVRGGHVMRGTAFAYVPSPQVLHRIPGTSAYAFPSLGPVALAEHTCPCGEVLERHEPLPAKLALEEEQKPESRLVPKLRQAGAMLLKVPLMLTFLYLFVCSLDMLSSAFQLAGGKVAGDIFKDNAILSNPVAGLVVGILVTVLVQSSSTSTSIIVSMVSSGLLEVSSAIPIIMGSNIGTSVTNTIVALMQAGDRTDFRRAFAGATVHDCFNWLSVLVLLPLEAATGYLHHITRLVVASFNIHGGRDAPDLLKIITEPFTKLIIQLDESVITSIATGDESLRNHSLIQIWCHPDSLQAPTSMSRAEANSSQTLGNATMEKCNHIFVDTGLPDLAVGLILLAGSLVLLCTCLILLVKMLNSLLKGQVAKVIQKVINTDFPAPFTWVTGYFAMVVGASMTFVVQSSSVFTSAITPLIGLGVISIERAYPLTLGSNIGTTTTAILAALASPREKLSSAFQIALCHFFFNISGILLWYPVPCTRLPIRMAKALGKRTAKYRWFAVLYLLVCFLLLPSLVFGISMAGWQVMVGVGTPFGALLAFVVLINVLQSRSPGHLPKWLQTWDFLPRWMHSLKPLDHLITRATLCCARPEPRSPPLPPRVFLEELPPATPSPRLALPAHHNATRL
Assay: Npt2a activity cell based assay, membrane potential dye, CHO T-REx hNpt2a cells
Details: doxycycline-induced, depolarization by sodium phosphate influx, average or median values if tested more than once
Respond with the bare value in µM.

Past entries and their recorded results:
{"Chemical String": "Cc1cc(C)n(-c2cc(Nc3c(C)c(-c4ccc(Cl)cc4)nn3CC3CC3)ncn2)n1", "IC50 (µM)": 0.01}
{"Chemical String": "CCc1c(Nc2cc(-n3nc(C)c4ncccc43)ncn2)nn(C)c1-c1ccc(F)cc1", "IC50 (µM)": 0.036}
{"Chemical String": "Cc1nn(-c2cc(Nc3nn(C)c(-c4ccc(F)cc4)c3Cl)ncn2)c(C(C)(C)O)c1Cl", "IC50 (µM)": 0.006}

Query: Entry under review: "Cc1nn(-c2cc(Nc3c(C)c(-c4ccc(C(F)(F)F)nc4)nn3CC3CC3)ncn2)c(C)c1Cl" . Reported IC50?
Reply: 1.5

* * *

Target: human Npt2a (Homo sapiens)
Assay: Npt2a activity cell based assay, membrane potential dye, CHO T-REx hNpt2a cells
Conditions: doxycycline-induced, depolarization by sodium phosphate influx, average or median values if tested more than once
Measurement Label: IC50 (nM)
Respond with the bare value in nM.

Past entries and their recorded results:
{"Chemical String": "Cc1nn(-c2cc(Nc3nn(C)c(-c4ccc(F)cc4)c3C)ncn2)c(C)c1Cl", "Unit Abbrev": "nM", "Endpoint Result": 3.45}
{"Chemical String": "Cc1cc(C)n(-c2cc(Nc3c(Cl)c(-c4ccc(F)cc4)nn3CC3CC3)ncn2)n1", "Unit Abbrev": "nM", "Endpoint Result": 10}
{"Chemical String": "Cc1cc(C)n(-c2cc(Nc3n[nH]c(-c4ccc(F)cc4)c3C3CC3)ncn2)n1", "Unit Abbrev": "nM", "Endpoint Result": 36}
{"Chemical String": "CCOC(=O)c1c(C)nn(-c2cc(Nc3n[nH]c(-c4ccc(C#N)cc4)c3C)ncn2)c1C", "Unit Abbrev": "nM", "Endpoint Result": 360}
{"Chemical String": "CCc1c(Nc2cc(-n3nc(C)c(C#N)c3C)ncn2)nn(C)c1-c1ccc(F)cc1", "Unit Abbrev": "nM", "Endpoint Result": 59.5}
{"Chemical String": "Cc1cc(C(F)F)n(-c2cc(Nc3c(C)c(-c4ccc(C(F)(F)F)nc4)nn3CC3CC3)ncn2)n1", "Unit Abbrev": "nM", "Endpoint Result": 2800}
{"Chemical String": "Cc1cc(C(F)F)n(-c2cc(Nc3c(C)c(-c4ccc(Cl)cc4)nn3CC3CC3)ncn2)n1", "Unit Abbrev": "nM", "Endpoint Result": 36}

Now for a further compound.
Query: Entry under review: "Cc1ccc(-c2nn(CC3CC3)c(Nc3cc(-n4nc(C)cc4C(F)F)ncn3)c2C)cn1" . Reported IC50?
Reply: 1150
